IC50 for assorted compounds
Biological target: GRK2 (Homo sapiens)
Construct: purchased SignalChem A14-10G
Experiment: GRK2 Inhibition Assay (TR-FRET, Example 7)
Format: biochemical
Conditions: Enzyme Assay B, TR-FRET (Example 7); read-out: B: Enzymatic GRK2: IC50 (nM) (Example 7)
Output spec: scalar in nM, unitless text.

> print(dat)
                                   compound  experimental.system  quantitative.result
1  Cc1cccc([C@@H](CO)NC(=O)c2ccnc(NCc3nnc(-c4ccncn4)n3C)c2)c1  GRK2 (Homo sapiens)                   96
2  CCCn1c(CNc2cccc(C(=O)NCc3cccnc3C(F)(F)F)c2)nnc1-c1ccncn1  GRK2 (Homo sapiens)                  2.6
3  Cn1c(CNc2cccc(C(=O)N[C@@H]3CC(C)(C)Oc4ccccc43)c2)nnc1-c1ccncn1  GRK2 (Homo sapiens)                   45
4  Cn1c(CNc2cc(C(=O)NCc3cnc4ccccn34)ccn2)nnc1-c1ccncn1  GRK2 (Homo sapiens)                  7.9
5  O=C(NC1(c2ccccc2)CCOCC1)c1cccc(NCc2nnc(-c3ccncc3)n2CCO)c1  GRK2 (Homo sapiens)                  130

## Task Provide one value: measured IC50 of O=C(NCc1cccc(F)c1)c1cccc(NCc2nnc(-c3ccncc3)n2CCO)c1
## Result 9.2

## Task Note IC50 for the compound shown: Cn1c(CNc2cccc(C(=O)N[C@@H]3CCOc4c3ccc(F)c4F)c2)nnc1-c1ccncn1
## Result 3.3

## Task Input C[C@@H](NC(=O)c1ccnc(NCc2nnc(-c3ccncn3)n2C)c1)c1ncccc1Cl , output reported IC50.
## Result 55

## Task Note down IC50 recorded for O=C(NC1(c2ccccc2)CCOCC1)c1cccc(NCc2nnc(-c3ccncc3)[nH]2)c1
## Result 330

## Task Using the record for Cn1c(CNc2cccc(C(=O)NCc3cnn(-c4ccccc4)n3)c2)nnc1-c1ccncn1 [drawing 616] , state its measured IC50.
## Result 18

## Task Let me know recorded IC50 for CCCn1c(CNc2cncc(C(=O)NCc3ccccc3C(F)(F)F)c2)nnc1-c1ccncn1 , thanks.
## Result 30

## Task Assign IC50 to the following record: C#COc1cccc(OS(=O)(=O)F)c1CNC(=O)c1cccc(NCc2nnc(-c3ccncc3)[nH]2)c1
## Result 7.7

## Task Output IC50 of Cn1c(CNc2cccc(C(=O)N[C@H]3CCOc4cccnc43)c2)nnc1-c1ccncn1
## Result 990

## Task Please give measured IC50 of the following entry: CNCCn1c(CNc2cccc(C(=O)NCc3c(F)cccc3F)c2)nnc1-c1ccncn1
## Result 1400

## Task State, in one line, measured IC50 of COc1ncccc1CNC(=O)c1cccc(NCc2nnc(-c3ccncc3)n2CCO)c1
## Result 20

## Task State, in one line, measured IC50 of O=C(NC1(c2ccccc2)CCOCC1)c1cccc(NCc2nnc(-c3ccncn3)n2CCO)c1
## Result 6.3

## Task Answer with reported IC50 of Cn1c(CNc2cccc(C(=O)NCc3ccc(-n4nccn4)cc3)c2)nnc1-c1ccncn1 [drawing 601]
## Result 20

## Task // fetch IC50 given entry Cc1ccc(C(CO)NC(=O)c2cccc(NCc3nnc(-c4ccncn4)n3C)c2)cc1 (stereo not shown) [drawing 575]
## Result 8.1

## Task Write down IC50 measured for item Cn1c(CNc2cccc(C(=O)NCc3ccc4c(c3)CCN4)c2)nnc1-c1ccncn1 [drawing 571]
## Result 15

## Task Output IC50 of Cn1c(CNc2cccc(C(=O)NCc3cc[nH]n3)c2)nnc1-c1ccncn1
## Result 39

## Task Supply measured IC50 of Cn1c(CNc2cccc(C(=O)N[C@@H]3CCOc4cccnc43)c2)nnc1-c1ccncn1 in your reply.
## Result 7

## Task Write down IC50 measured for item COc1ccc(CNC(=O)c2cccc(NCc3nnc(-c4ccncc4)[nH]3)c2)c(F)c1
## Result 15

## Task Provide one value: measured IC50 of COc1cccc(C(CO)NC(=O)c2cccc(NCc3nnc(-c4ccncn4)n3C)c2)c1 (stereo not shown) [drawing 569]
## Result 13

----------
Target: GRK2 (Homo sapiens)
Construct: purchased SignalChem A14-10G
Sequence (P25098 1-689): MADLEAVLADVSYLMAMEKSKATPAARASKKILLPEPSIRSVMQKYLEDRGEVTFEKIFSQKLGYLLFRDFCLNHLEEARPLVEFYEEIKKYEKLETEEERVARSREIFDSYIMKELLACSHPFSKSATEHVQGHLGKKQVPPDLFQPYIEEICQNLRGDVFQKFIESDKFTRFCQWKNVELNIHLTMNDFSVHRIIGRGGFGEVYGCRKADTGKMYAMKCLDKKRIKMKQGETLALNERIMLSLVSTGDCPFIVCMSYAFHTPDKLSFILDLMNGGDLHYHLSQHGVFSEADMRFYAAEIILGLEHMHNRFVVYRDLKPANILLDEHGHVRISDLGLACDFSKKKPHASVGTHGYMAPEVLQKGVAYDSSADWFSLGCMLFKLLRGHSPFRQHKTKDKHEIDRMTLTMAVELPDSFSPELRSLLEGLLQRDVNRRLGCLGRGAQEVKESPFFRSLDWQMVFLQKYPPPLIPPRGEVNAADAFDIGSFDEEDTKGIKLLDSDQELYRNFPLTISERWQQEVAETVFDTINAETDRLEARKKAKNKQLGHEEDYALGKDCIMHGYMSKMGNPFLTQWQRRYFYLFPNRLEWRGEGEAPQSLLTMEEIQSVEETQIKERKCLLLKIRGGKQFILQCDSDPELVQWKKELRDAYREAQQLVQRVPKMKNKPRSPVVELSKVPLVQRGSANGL
Assay: ADPGlo GRK2 Inhibition Assay (Example 8)
Type: biochemical
Method: HTS was performed using 1 μM compound. Compounds were dissolved in 100% DMSO, serially diluted tree-fold from 100 μM concentration to 46 nM and transferred (50 nL) into assay ready plate. Materials: GRK2 was purchased from SignalChem (Cat #A14-10G, Lot #X^645-3). […] HTS protocol: Take 384 well plate with 50 nL of compound in columns 3-22/DMSO solution 1-2,23-24. […] Read plate in Luminescent modeon BMG PheraStar FSX (gain=3600). Data Analysis: Data were analyzed in GraphPad Prism 8.0.2. […]
Recorded Metric: pIC50
The read-out pIC50 is expressed as -log10 of concentration in moles per litre.

## Task For the compound C#Cc1cccc(OS(=O)(=O)F)c1CNC(=O)c1cccc(NCc2nnc(-c3ccncc3)[nH]2)c1 , report pIC50.
## Result 8.05

----------
Target: GRK2 (Homo sapiens, UniProt P25098)
Construct: purchased SignalChem A14-10G
Sequence (P25098 1-689): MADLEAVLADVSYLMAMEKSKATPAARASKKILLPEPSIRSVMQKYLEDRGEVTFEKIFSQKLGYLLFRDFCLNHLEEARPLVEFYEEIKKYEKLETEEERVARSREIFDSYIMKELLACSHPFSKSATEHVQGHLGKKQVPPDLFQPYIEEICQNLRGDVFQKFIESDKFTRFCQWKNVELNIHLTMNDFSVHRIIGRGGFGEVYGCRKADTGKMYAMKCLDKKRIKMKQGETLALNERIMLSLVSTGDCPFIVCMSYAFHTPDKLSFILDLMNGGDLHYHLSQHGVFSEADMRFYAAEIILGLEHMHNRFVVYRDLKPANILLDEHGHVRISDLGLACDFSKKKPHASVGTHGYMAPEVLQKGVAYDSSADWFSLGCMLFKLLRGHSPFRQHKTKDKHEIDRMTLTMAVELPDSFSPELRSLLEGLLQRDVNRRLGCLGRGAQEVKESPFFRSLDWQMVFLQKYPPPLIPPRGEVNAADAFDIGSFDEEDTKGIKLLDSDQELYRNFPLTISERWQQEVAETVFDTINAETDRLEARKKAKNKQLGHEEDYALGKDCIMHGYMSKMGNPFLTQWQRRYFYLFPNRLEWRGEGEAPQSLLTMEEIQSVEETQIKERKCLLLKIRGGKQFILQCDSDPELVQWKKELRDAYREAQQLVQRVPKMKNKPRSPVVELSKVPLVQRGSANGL
Test: ADPGlo GRK2 Inhibition Assay (Example 8)
Assay type: biochemical
Conditions: 7.5 nM GRK2, 10 μM ATP, ADP-Glo; read-out: GRK2 IC50 (nM) (Example 8)
Reported values of IC50 for individual entries
Express it in nM; write the number only.

## Task Note IC50 for the compound shown: Cn1c(CNc2cccc(C(=O)NCc3cccc(C#N)c3)c2)nnc1-c1ccncn1
## Result 2.7

----------
Target: GRK2 (Homo sapiens, UniProt P25098)
Construct: purchased SignalChem A14-10G
Experiment: GRK2 Inhibition Assay (TR-FRET, Example 7)
Assay type: biochemical
Settings: TR-FRET GRK2 enzyme assay; read-out: B: Enzymatic GRK2: IC50 (nM) (Example 7)
Recorded Metric: IC50 (nM)
Numbers only here, please. The scale is nM.

Sample answers from the record:
> print(dat)
                                   compound  quantitative.result
1  C[C@H](NC(=O)c1cccc(NCc2nnc(-c3ccncn3)n2C)c1)c1ncccc1Cl                   16
2  COc1ccc([C@@H](C#N)NC(=O)c2cccc(NCc3nnc(-c4ccncn4)n3C)c2)c(OC)c1                  7.8

## Task State its IC50 for this compound: CNS(=O)(=O)c1cccc(F)c1CNC(=O)c1cccc(NCc2nnc(-c3ccncn3)n2C)c1
## Result 12.7

## Task Annotate the compound CCc1cnccc1CNC(=O)c1cccc(NCc2nnc(-c3ccncn3)n2[C@@H]2CC[C@@H](NC)C2)c1 with its measured IC50.
## Result 230

## Task Complete the entry with IC50 for COc1ccc([C@H](C#N)NC(=O)c2cccc(NCc3nnc(-c4ccncn4)n3C)c2)c(OC)c1
## Result 68

## Task Tell us which IC50 value is on record for Cn1c(CNc2cccc(C(=O)N[C@H](C#N)c3c(F)cccc3Cl)c2)nnc1-c1ccncn1
## Result 5.7

## Task Check the records and state IC50 for CCc1cnccc1CNC(=O)c1cccc(NCc2nnc(-c3ccncn3)n2[C@H]2CCC[C@@H](NC)C2)c1
## Result 3900

Data credit: patent US20230009608A1
